Assay Procedure: Body weight in R6/2 mice
Run Parameters: i.v. twice-a-week 25 mg/kg, Day 7
Measured Attribute: Body weight (group Mean) (g)
Give just the numeric value; g need not be written.

Exam item: Item under review: CN(C)CCCNC(=N)c1ccc(C(=N)NCCCN(C)C)cc1.Cl.Cl.Cl.Cl [DB213] . Reported Body weight (group Mean)?
Marked response: 22

---

Assay Procedure: Body weight in R6/2 mice
Run Parameters: i.v. twice-a-week 25 mg/kg, Day 4
Measured Attribute: Body weight (group Mean) (g)
Give just the numeric value; g need not be written.

Exam item: Item under review: CN(C)CCCNC(=N)c1ccc(C(=N)NCCCN(C)C)cc1.Cl.Cl.Cl.Cl . Reported Body weight (group Mean)?
Marked response: 21.6

---

Assay Procedure: Body weight in R6/2 mice
Run Parameters: i.n. daily 200 mg/kg, Day 1
Measured Attribute: Body weight (group Mean) (g)
Give just the numeric value; g need not be written.

Exam item: Item under review: CN(C)CCCNC(=N)c1ccc(C(=N)NCCCN(C)C)cc1.Cl.Cl.Cl.Cl . Reported Body weight (group Mean)?
Marked response: 20.9

---

Assay Procedure: Body weight in R6/2 mice
Run Parameters: i.n. daily 200 mg/kg, Day 3
Measured Attribute: Body weight (group Mean) (g)
Give just the numeric value; g need not be written.

Exam item: Item under review: CN(C)CCCNC(=N)c1ccc(C(=N)NCCCN(C)C)cc1.Cl.Cl.Cl.Cl [DB213] . Reported Body weight (group Mean)?
Marked response: 20.4

---

Assay Procedure: Body weight in R6/2 mice
Run Parameters: i.v. 50 mg/kg (treatment discontinued), Day 6 (not measured, replaced by mean of days 5 and 7), n 1
Measured Attribute: Body weight (group Mean) (g)
Give just the numeric value; g need not be written.

Exam item: Item under review: CN(C)CCCNC(=N)c1ccc(C(=N)NCCCN(C)C)cc1.Cl.Cl.Cl.Cl [DB213] . Reported Body weight (group Mean)?
Marked response: 16.8

---

Assay Procedure: Body weight in R6/2 mice
Run Parameters: i.n. daily 300 mg/kg, Day 3
Measured Attribute: Body weight (group Mean)

Exam item: Item under review: CN(C)CCCNC(=N)c1ccc(C(=N)NCCCN(C)C)cc1.Cl.Cl.Cl.Cl [DB213] . Reported Body weight (group Mean)?
Marked response: 19.5 g

---

Subject Of Test: r(CAG)7 RNA
Assay Procedure: Isothermal titration calorimetry (ITC) binding assay
Run Parameters: 25° C., DB213 800 μM titrated to r(CAG)7 RNA 40 μM, one binding site model
Measured Attribute: Kd (nM)
Give just the numeric value; nM need not be written.

Exam item: Item under review: CN(C)CCCNC(=N)c1ccc(C(=N)NCCCN(C)C)cc1.Cl.Cl.Cl.Cl [DB213] . Reported Kd?
Marked response: 1530

---

Assay Procedure: Body weight in R6/2 mice
Run Parameters: i.v. twice-a-week 12.5 mg/kg, Day 6 (not measured, replaced by mean of days 5 and 7)
Measured Attribute: Body weight (group Mean) (g)
Give just the numeric value; g need not be written.

Exam item: Item under review: CN(C)CCCNC(=N)c1ccc(C(=N)NCCCN(C)C)cc1.Cl.Cl.Cl.Cl . Reported Body weight (group Mean)?
Marked response: 22.4

---

Assay Procedure: Body weight in R6/2 mice
Run Parameters: i.n. daily 100 mg/kg, Day 6
Measured Attribute: Body weight (group Mean)
Please report the result as a number followed by the unit.

Exam item: Item under review: CN(C)CCCNC(=N)c1ccc(C(=N)NCCCN(C)C)cc1.Cl.Cl.Cl.Cl . Reported Body weight (group Mean)?
Marked response: 21.5 g
